# Method summary: Hygroscopicity at room temperature (weight gain and visual phase transition after 24 hours at controlled RH)
# Format: physicochemical
# Details: 55% RH, room temperature, 24 hours, visual observation
Experimental endpoint: Phase transition

>  <Compound>
CC(C)c1nc(CN(C)C(=O)N[C@@H](CCN2CCOCC2)C(=O)N[C@H](CC[C@H](Cc2ccccc2)NC(=O)OCc2cncs2)Cc2ccccc2)cs1.O=P(O)(O)O [phosphate]

>  <Result>
No

$$$$
>  <Compound>
CC(C)c1nc(CN(C)C(=O)N[C@@H](CCN2CCOCC2)C(=O)N[C@H](CC[C@H](Cc2ccccc2)NC(=O)OCc2cncs2)Cc2ccccc2)cs1.O=C(O)CCC(=O)O [succinate]

>  <Result>
Yes

$$$$
>  <Compound>
CC(C)c1nc(CN(C)C(=O)NC(CCN2CCOCC2)C(=O)NC(CCC(Cc2ccccc2)NC(=O)OCc2cncs2)Cc2ccccc2)cs1.O=C(O)c1ccc2ccccc2c1O (centres unmarked) [xinafoate]

>  <Result>
No

$$$$
>  <Compound>
CC(C)c1nc(CN(C)C(=O)N[C@@H](CCN2CCOCC2)C(=O)N[C@H](CC[C@H](Cc2ccccc2)NC(=O)OCc2cncs2)Cc2ccccc2)cs1.CCS(=O)(=O)O

>  <Result>
Yes

$$$$

---

# Method summary: Hygroscopicity at room temperature (weight gain and visual phase transition after 24 hours at controlled RH)
# Type: physicochemical
# Details: 55% RH, room temperature, 24 hours
Recorded % weight gain for the following molecules
Reply numerically in %, unit not repeated.

Example entries and their recorded answers appear below.
>  <Molecule>
CC(C)c1nc(CN(C)C(=O)N[C@@H](CCN2CCOCC2)C(=O)N[C@H](CC[C@H](Cc2ccccc2)NC(=O)OCc2cncs2)Cc2ccccc2)cs1.O=C(O)CNC(=O)c1ccccc1 [hippurate]

>  <Unit text>
%

>  <% weight gain>
3.37

$$$$
>  <Molecule>
CC(C)c1nc(CN(C)C(=O)N[C@@H](CCN2CCOCC2)C(=O)N[C@H](CC[C@H](Cc2ccccc2)NC(=O)OCc2cncs2)Cc2ccccc2)cs1.O=P(O)(O)O [phosphate]

>  <Unit text>
%

>  <% weight gain>
4.52

$$$$
>  <Molecule>
CC(C)c1nc(CN(C)C(=O)NC(CCN2CCOCC2)C(=O)NC(CCC(Cc2ccccc2)NC(=O)OCc2cncs2)Cc2ccccc2)cs1.O=C(O)c1ccc2ccccc2c1O (centres unmarked) [xinafoate]

>  <Unit text>
%

>  <% weight gain>
0.29

$$$$
>  <Molecule>
CC(C)c1nc(CN(C)C(=O)N[C@@H](CCN2CCOCC2)C(=O)N[C@H](CC[C@H](Cc2ccccc2)NC(=O)OCc2cncs2)Cc2ccccc2)cs1.O=C(O)CC(=O)O [malonate]

>  <Unit text>
%

>  <% weight gain>
3.43

$$$$

# next molecule below
Query (molecule): CC(C)c1nc(CN(C)C(=O)N[C@@H](CCN2CCOCC2)C(=O)N[C@H](CC[C@H](Cc2ccccc2)NC(=O)OCc2cncs2)Cc2ccccc2)cs1.O=C(O)c1cc(O)ccc1O [gentisate] ; field requested: % weight gain
2.17

---

# Method summary: Hygroscopicity at room temperature (weight gain and visual phase transition after 24 hours at controlled RH)
# Type: physicochemical
# Details: 55% RH, room temperature, 24 hours, visual observation
Experimental endpoint: Phase transition

Example entries and their recorded answers appear below.
>  <Compound>
O=C(O)CCC(=O)C(=O)O [ketoglutarate]

>  <Phase transition>
Yes

$$$$
>  <Compound>
CC(C)c1nc(CN(C)C(=O)N[C@@H](CCN2CCOCC2)C(=O)N[C@H](CC[C@H](Cc2ccccc2)NC(=O)OCc2cncs2)Cc2ccccc2)cs1.O=C1NS(=O)(=O)c2ccccc21 [saccharinate]

>  <Phase transition>
No

$$$$
>  <Compound>
CC(C)c1nc(CN(C)C(=O)N[C@@H](CCN2CCOCC2)C(=O)N[C@H](CC[C@H](Cc2ccccc2)NC(=O)OCc2cncs2)Cc2ccccc2)cs1 [citrate]

>  <Phase transition>
No

$$$$
>  <Compound>
CC(C)c1nc(CN(C)C(=O)N[C@@H](CCN2CCOCC2)C(=O)N[C@H](CC[C@H](Cc2ccccc2)NC(=O)OCc2cncs2)Cc2ccccc2)cs1.O=C(O)CNC(=O)c1ccccc1 [hippurate]

>  <Phase transition>
Partial

$$$$
>  <Compound>
CC(C)c1nc(CN(C)C(=O)N[C@@H](CCN2CCOCC2)C(=O)N[C@H](CC[C@H](Cc2ccccc2)NC(=O)OCc2cncs2)Cc2ccccc2)cs1.CC1(C)C2CCC1(CS(=O)(=O)O)C(=O)C2 [camphorosulfonate]

>  <Phase transition>
No

$$$$
>  <Compound>
CC(C)c1nc(CN(C)C(=O)N[C@@H](CCN2CCOCC2)C(=O)N[C@H](CC[C@H](Cc2ccccc2)NC(=O)OCc2cncs2)Cc2ccccc2)cs1.O=C(O)c1cc(O)ccc1O [gentisate]

>  <Phase transition>
No

$$$$

Query (compound): CC(C)c1nc(CN(C)C(=O)N[C@@H](CCN2CCOCC2)C(=O)N[C@H](CC[C@H](Cc2ccccc2)NC(=O)OCc2cncs2)Cc2ccccc2)cs1.O=C(O)CC(=O)O [malonate] ; field requested: Phase transition
Yes

Query (compound): O=S(=O)(O)O [sulfate] ; field requested: Phase transition
Partial

Query (compound): CC(C)c1nc(CN(C)C(=O)N[C@@H](CCN2CCOCC2)C(=O)N[C@H](CC[C@H](Cc2ccccc2)NC(=O)OCc2cncs2)Cc2ccccc2)cs1.Cl [hydrochloride] ; field requested: Phase transition
Partial

---

# Method summary: Hygroscopicity at room temperature (weight gain and visual phase transition after 24 hours at controlled RH)
# Type: physicochemical
# Details: spray dried salts, 55% RH
Experimental endpoint: Weight gain at 55% RH RH (%)

>  <Compound>
CC(C)c1nc(CN(C)C(=O)N[C@@H](CCN2CCOCC2)C(=O)N[C@H](CC[C@H](Cc2ccccc2)NC(=O)OCc2cncs2)Cc2ccccc2)cs1.O=C(O)c1cc(O)ccc1O [gentisate]

>  <Experimental endpoint>
Weight gain at 55% RH RH (%)

>  <Result>
3.1%

$$$$
>  <Compound>
CC(C)c1nc(CN(C)C(=O)N[C@@H](CCN2CCOCC2)C(=O)N[C@H](CC[C@H](Cc2ccccc2)NC(=O)OCc2cncs2)Cc2ccccc2)cs1.Cl [hydrochloride]

>  <Experimental endpoint>
Weight gain at 55% RH RH (%)

>  <Result>
7.8%

$$$$
>  <Compound>
CC(C)c1nc(CN(C)C(=O)N[C@@H](CCN2CCOCC2)C(=O)N[C@H](CC[C@H](Cc2ccccc2)NC(=O)OCc2cncs2)Cc2ccccc2)cs1.O=P(O)(O)O [phosphate]

>  <Experimental endpoint>
Weight gain at 55% RH RH (%)

>  <Result>
4.7%

$$$$

# next compound below
Query (compound): CC(C)c1nc(CN(C)C(=O)NC(CCN2CCOCC2)C(=O)NC(CCC(Cc2ccccc2)NC(=O)OCc2cncs2)Cc2ccccc2)cs1.O=C(O)c1ccc2ccccc2c1O (stereo not shown) [xinafoate] ; field requested: Weight gain at 55% RH RH (%)
2.6%

---

# Method summary: Hygroscopicity at room temperature (weight gain and visual phase transition after 24 hours at controlled RH)
# Assay type: physicochemical
# Details: 75% RH, room temperature, 24 hours
Quick rule for you: % weight gain under 6% gets true (1), anything else gets false (0).

Would you please look over these solved cases?
>  <Molecule>
CC(C)c1nc(CN(C)C(=O)NC(CCN2CCOCC2)C(=O)NC(CCC(Cc2ccccc2)NC(=O)OCc2cncs2)Cc2ccccc2)cs1.O=C(O)c1ccc2ccccc2c1O (centres unmarked) [xinafoate]

>  <Class name>
true (1)

$$$$
>  <Molecule>
CC(C)c1nc(CN(C)C(=O)N[C@@H](CCN2CCOCC2)C(=O)N[C@H](CC[C@H](Cc2ccccc2)NC(=O)OCc2cncs2)Cc2ccccc2)cs1.CCS(=O)(=O)O

>  <Class name>
false (0)

$$$$
>  <Molecule>
CC(C)c1nc(CN(C)C(=O)N[C@@H](CCN2CCOCC2)C(=O)N[C@H](CC[C@H](Cc2ccccc2)NC(=O)OCc2cncs2)Cc2ccccc2)cs1.O=C1NS(=O)(=O)c2ccccc21 [saccharinate]

>  <Class name>
true (1)

$$$$

Find out if reported % weight gain for CC(C)c1nc(CN(C)C(=O)N[C@@H](CCN2CCOCC2)C(=O)N[C@H](CC[C@H](Cc2ccccc2)NC(=O)OCc2cncs2)Cc2ccccc2)cs1.O=C(O)c1cc(O)ccc1O [gentisate] is less than 6%
true (1)

Find out if reported % weight gain for CC(C)c1nc(CN(C)C(=O)N[C@@H](CCN2CCOCC2)C(=O)N[C@H](CC[C@H](Cc2ccccc2)NC(=O)OCc2cncs2)Cc2ccccc2)cs1.O=C(O)CNC(=O)c1ccccc1 [hippurate] is less than 6%
true (1)

Find out if reported % weight gain for CC(C)c1nc(CN(C)C(=O)N[C@@H](CCN2CCOCC2)C(=O)N[C@H](CC[C@H](Cc2ccccc2)NC(=O)OCc2cncs2)Cc2ccccc2)cs1.O=C(O)C(=O)O.O=C(O)C(=O)O [oxalate] is less than 6%
false (0)
